- TEST: Cytotoxicity against human C8166 cells after 3 days by MTT assay
- Format: cell-based
// CC50 at 72 h lookup, one value per entry
Supply the numeric figure in µM, leaving out any unit text.

N#Cc1ccc(NCCCN)c([N+](=O)[O-])c1	24.5
Cc1cccc(NCCCN)c1[N+](=O)[O-]	10.1
NCCCNc1ccc(CNCCN)cc1[N+](=O)[O-]	15
NCCCOc1ccc(CO)cc1[N+](=O)[O-]	30.6
NCCCCNc1ccccc1[N+](=O)[O-]	18.2
NCCNc1ccccc1[N+](=O)[O-]	42.3
CC(O)c1ccc(NCCCN)c([N+](=O)[O-])c1 (centres undefined)	12.6
Cc1ccc([N+](=O)[O-])cc1NCCCN	77.8

Please look at the following molecule next.
Item under review: `NCCCOc1ccccc1[N+](=O)[O-]` . Reported CC50 at 72 h? 5.52
